FYI, the data here is from the RNAGym collection of RNA variant scans (doi:10.1073/pnas.2313332121).

B1: TPR 5TU (parent)
chain: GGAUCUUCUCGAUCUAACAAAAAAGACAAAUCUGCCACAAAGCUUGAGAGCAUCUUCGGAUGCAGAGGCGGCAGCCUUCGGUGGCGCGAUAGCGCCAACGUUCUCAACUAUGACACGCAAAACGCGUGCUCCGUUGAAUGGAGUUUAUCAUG

variants of: B1; assay: polymerase ribozyme fitness, log enrichment relative to wild type (log ratio); higher = more active; in vitro selection for triplet polymerase activity
Variants at the floor of the assay were thinned out.
Would you kindly list polymerase ribozyme fitness (log ratio) for each of these variants?
One number for each entry.

Could you share which polymerase ribozyme fitness (log ratio) value was measured for A20C G46A C69G G94A ?
-2.22

For each of the variants below, state polymerase ribozyme fitness (log ratio).
1. U15G C51A C93A G124U U145A
2. C93U C125A

[-3.28, -2.69]

For each of the variants below, state polymerase ribozyme fitness (log ratio).
1. U45A C51U C54U G92U
2. C76A C99A
3. C35U C76U C99U
4. G34A C69A A106G A147C

[-3.95, -4.05, -1.5, -3.75]

For each of the variants below, state polymerase ribozyme fitness (log ratio).
1. G94U G141C
2. C51A C57U U146G
3. A107G C131A
4. G86U G92C
5. A12G G74C
6. G84A C118A U146C
7. G25C A52G G83C

1: -1.45; 2: -1.67; 3: -4.19; 4: -2.75; 5: -3.9; 6: -1.34; 7: -3.42

For each of the variants below, state polymerase ribozyme fitness (log ratio).
1. A21U C51U C93G C105U A120G
2. A39G C75U C85U A137G
3. G84A G124U
4. U61A C85A G141C
5. A37C C93U
6. U13C A39C U56A C95U G124A

1. -3.58
2. -3.67
3. -0.556
4. -2.36
5. -1.64
6. -3.63
